Biological target: T1, OCT2 DBD (POU domain) (Homo sapiens, UniProt P09086 195-357)
T1 sequence: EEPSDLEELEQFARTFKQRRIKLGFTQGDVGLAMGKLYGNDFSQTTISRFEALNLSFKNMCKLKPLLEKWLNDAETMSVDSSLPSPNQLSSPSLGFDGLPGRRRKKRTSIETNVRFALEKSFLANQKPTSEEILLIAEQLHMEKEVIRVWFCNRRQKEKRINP
Assay: fluorescence anisotropy; 0.35 M Na+, 1 U poly[d(I-C)]; text gives 0.18 +/- 0.06 uM; FP: 5 nM probe, 10 mM Bis-Tris pH 6.5, 0.01% BSA, 0.15-0.35 M NaCl, 25 C overnight, Hill fit with nH = 2 (macroscopic KD of dimer); EMSA: 10 nM DNA, PBS, 25 C o
Settings: protein: recombinant; tags: N-terminal His6 removed by thrombin; chain copies: 2; label: 5'-HEX; blunt; self-complementary, 2 copies of the strand
pKd: −log10 of the molar value.

BINDER | pKd
MORE 22-bp, HEX-labelled (dsDNA) DNA 1: TCCTCATGCATATGCATGAGGA DNA 2: TCCTCATGCATATGCATGAGGA | 6.72
